Biological target: human recombinant PLK4 (Homo sapiens (Human))
Sequence (O00444 whole entry): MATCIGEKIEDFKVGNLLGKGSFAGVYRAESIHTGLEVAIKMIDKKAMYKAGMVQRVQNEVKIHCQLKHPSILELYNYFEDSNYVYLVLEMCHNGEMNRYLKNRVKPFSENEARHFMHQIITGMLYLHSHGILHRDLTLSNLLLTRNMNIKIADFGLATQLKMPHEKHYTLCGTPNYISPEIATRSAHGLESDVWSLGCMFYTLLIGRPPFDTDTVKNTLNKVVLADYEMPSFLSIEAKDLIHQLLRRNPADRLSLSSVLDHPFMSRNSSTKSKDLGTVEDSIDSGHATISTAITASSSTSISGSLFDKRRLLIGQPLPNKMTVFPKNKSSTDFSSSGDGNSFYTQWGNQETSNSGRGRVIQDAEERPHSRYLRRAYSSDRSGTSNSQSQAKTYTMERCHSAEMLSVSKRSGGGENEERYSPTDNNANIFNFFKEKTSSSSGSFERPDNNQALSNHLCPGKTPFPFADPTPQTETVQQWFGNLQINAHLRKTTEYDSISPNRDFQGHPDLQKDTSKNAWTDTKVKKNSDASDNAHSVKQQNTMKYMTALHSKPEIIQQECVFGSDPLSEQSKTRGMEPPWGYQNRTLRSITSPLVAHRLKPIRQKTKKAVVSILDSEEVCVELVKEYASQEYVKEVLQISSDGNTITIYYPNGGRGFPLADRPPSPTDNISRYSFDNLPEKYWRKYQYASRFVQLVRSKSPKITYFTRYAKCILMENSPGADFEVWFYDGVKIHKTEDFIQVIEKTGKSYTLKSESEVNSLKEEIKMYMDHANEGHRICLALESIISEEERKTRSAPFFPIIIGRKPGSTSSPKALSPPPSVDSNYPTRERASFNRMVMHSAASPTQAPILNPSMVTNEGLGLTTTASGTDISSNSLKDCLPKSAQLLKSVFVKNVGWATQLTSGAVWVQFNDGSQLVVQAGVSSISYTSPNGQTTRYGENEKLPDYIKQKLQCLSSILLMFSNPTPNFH
Assay: PLK4 Biochemical Assay (ADP-Glo)
Conditions: 0.5 nM PLK4, 8.0 µM ATP, 4.7 µM MBP, 6 hours at RT
pIC50: −log10 of the molar value.
READOUT NAME: pIC50

Below, each entry is followed by its recorded pIC50 result.
>>> print(df.to_string())
                                   compound                          target_or_system  test_value
0  COc1ccc2c(c1)[C@]1(C[C@H]1c1ccc3c(Nc4nc(C5CC5)nc(N5CCS(=O)(=O)CC5)c4OC)n[nH]c3c1)C(=O)N2  human recombinant PLK4 (Homo sapiens (Human))        8.53
1  COc1ccc2c(c1)[C@]1(C[C@H]1c1ccc3c(Nc4cc(C(=O)N(C)C)ncc4OC)n[nH]c3c1)C(=O)N2  human recombinant PLK4 (Homo sapiens (Human))        8.06
2  COc1ccc2c(c1)[C@]1(C[C@H]1c1ccc3c(Nc4nc(CCO)cnc4OC)n[nH]c3c1)C(=O)N2  human recombinant PLK4 (Homo sapiens (Human))        8.42
3  COc1ccc2c(c1)[C@]1(C[C@H]1c1ccc3c(Nc4cc(N5CCS(=O)(=O)CC5)nc(C)n4)n[nH]c3c1)C(=O)N2  human recombinant PLK4 (Homo sapiens (Human))        8.13
4  COc1ccc2c(c1)[C@]1(C[C@H]1c1ccc3c(Nc4ncnc(N5CCN(C)CC5)c4Cl)n[nH]c3c1)C(=O)N2  human recombinant PLK4 (Homo sapiens (Human))        8.65
5  COc1ccc2c(c1)[C@]1(C[C@H]1c1ccc3c(Nc4nc(C)nc(N5CCS(=O)(=O)CC5)c4OC)n[nH]c3c1)C(=O)N2  human recombinant PLK4 (Homo sapiens (Human))        8.29

A = COc1ccc2c(c1)[C@]1(C[C@H]1c1ccc3c(Nc4nc(C)ncc4OC(C)C)n[nH]c3c1)C(=O)N2
B = COc1ccc2c(c1)[C@]1(C[C@H]1c1ccc3c(Nc4cc(C)nnc4OC)n[nH]c3c1)C(=O)N2
Select one: A or B . Criterion: greater recorded pIC50. Indicate your choice by writing its label.
B

A = CCOc1nc(S(=O)(=O)N(C)C)ccc1Nc1n[nH]c2cc([C@@H]3C[C@@]34C(=O)Nc3ccc(OC)cc34)ccc12
B = COc1ccc2c(c1)[C@]1(C[C@H]1c1ccc3c(Nc4cccc5c4OC[C@H]5O)n[nH]c3c1)C(=O)N2 (stereo in doubt)
C = COc1ccc2c(c1)[C@]1(C[C@H]1c1cc3[nH]nc(Nc4nc(C)ncc4OC)c3cc1F)C(=O)N2
D = COc1ccc2c(c1)[C@]1(C[C@H]1c1ccc3c(Nc4ncncc4C)n[nH]c3c1)C(=O)N2 (racemic)
E = COc1ccc2c(c1)[C@]1(C[C@H]1c1ccc3c(Nc4ncncc4Cl)n[nH]c3c1)C(=O)N2 [Example 7]
Put these in order: smallest pIC50 first, largest last. Ranked list of labels, please, in the requested order.
D, E, A, C, B
(D: 7.53, E: 8.34, A: 8.64, C: 8.85, B: 9.43)

* * *

Biological target: human recombinant Aurora A (Homo sapiens (Human), UniProt O14965)
Sequence (O14965 whole entry): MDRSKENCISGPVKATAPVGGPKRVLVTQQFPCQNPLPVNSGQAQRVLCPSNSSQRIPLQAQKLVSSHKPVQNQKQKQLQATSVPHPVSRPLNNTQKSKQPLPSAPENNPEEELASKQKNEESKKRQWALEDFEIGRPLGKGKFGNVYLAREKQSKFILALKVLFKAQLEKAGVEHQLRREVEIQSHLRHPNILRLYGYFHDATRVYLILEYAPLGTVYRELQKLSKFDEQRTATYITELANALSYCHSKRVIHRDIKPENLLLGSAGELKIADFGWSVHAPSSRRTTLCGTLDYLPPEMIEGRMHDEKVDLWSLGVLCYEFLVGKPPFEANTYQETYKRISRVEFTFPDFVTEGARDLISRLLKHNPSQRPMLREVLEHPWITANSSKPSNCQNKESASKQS
Test: Aurora A Kinase Biochemical Assay (ADP-Glo)
Settings: ratio of Aurora A IC50 to PLK4 IC50 (selectivity)
READOUT NAME: [Aurora A IC50 (nM)]/[PLK4 IC50 (nM)]

Below, each entry is followed by its recorded [Aurora A IC50 (nM)]/[PLK4 IC50 (nM)] result.
>>> df
                                   molecule                           readout_name  test_value
0  CNS(=O)(=O)c1cc(OC)c(Nc2n[nH]c3cc([C@@H]4C[C@@]45C(=O)Nc4ccc(OC)cc45)ccc23)cc1C  [Aurora A IC50 (nM)]/[PLK4 IC50 (nM)]    462.3887
1  COc1ccc2c(c1)[C@]1(C[C@H]1c1ccc3c(Nc4nc(SC)ncc4OC)n[nH]c3c1)C(=O)N2  [Aurora A IC50 (nM)]/[PLK4 IC50 (nM)]    305.4106
2  CCOc1nc(S(C)(=O)=O)ccc1Nc1n[nH]c2cc([C@@H]3C[C@@]34C(=O)Nc3ccc(OC)cc34)ccc12  [Aurora A IC50 (nM)]/[PLK4 IC50 (nM)]   1031.3433

1 = COc1ccc2c(c1)[C@]1(C[C@H]1c1ccc3c(Nc4cc(N5CCCC5=O)cnc4OC)n[nH]c3c1)C(=O)N2
2 = COc1ccc2c(c1)[C@]1(C[C@H]1c1ccc3c(Nc4ncc(CCO)nc4OC)n[nH]c3c1)C(=O)N2
Select one: 1 or 2 . Criterion: greater recorded [Aurora A IC50 (nM)]/[PLK4 IC50 (nM)]. Indicate your choice by writing its label.
2
(2: 3251.804, 1: 1042.4081)

P = COc1ccc2c(c1)[C@]1(C[C@H]1c1ccc3c(Nc4ncnc(N5CC6(COC6)C5)c4Cl)n[nH]c3c1)C(=O)N2
Q = COc1ccc2c(c1)[C@]1(C[C@H]1c1ccc3c(Nc4cc(N5CCCOCC5)ncn4)n[nH]c3c1)C(=O)N2
R = Cc1ncc(OC(F)F)c(Nc2n[nH]c3c(F)c([C@@H]4C[C@@]45C(=O)Nc4ccc(F)cc45)ccc23)n1
S = COc1ccc2c(c1)[C@]1(C[C@H]1c1ccc3c(Nc4nc(C)ncc4OC)n[nH]c3c1)C(=O)N2
T = COc1ccc2c(c1)[C@]1(C[C@H]1c1ccc3c(Nc4cccc5c4OCC5)n[nH]c3c1)C(=O)N2
# sort list by recorded [Aurora A IC50 (nM)]/[PLK4 IC50 (nM)], greatest to least Ranked list of labels, please, in the requested order.
P, S, T, Q, R
(P: 5290.8329, S: 973.4177, T: 605.6855, Q: 67.06, R: 14.621)

A = COc1ccc2c(c1)[C@]1(C[C@H]1c1ccc3c(Nc4ccc(C(=O)NC(C)C)nc4OC)n[nH]c3c1)C(=O)N2
B = COc1cnc(C)nc1Nc1n[nH]c2cc([C@@H]3C[C@@]34C(=O)Nc3cccc(F)c34)ccc12
Returns: the label, A or B , whose recorded [Aurora A IC50 (nM)]/[PLK4 IC50 (nM)] is the lower number. Indicate your choice by writing its label.
B

I = COc1ccc2c(c1)[C@]1(C[C@H]1c1ccc3c(Nc4ncncc4Cl)n[nH]c3c1)C(=O)N2
II = COc1ccc2c(c1)[C@]1(C[C@H]1c1ccc3c(Nc4nc5cccnc5cc4OC)n[nH]c3c1)C(=O)N2
III = COc1ccc2c(c1)[C@]1(C[C@H]1c1ccc3c(Nc4cc(S(=O)(=O)N5CCOCC5)ccc4OC)n[nH]c3c1)C(=O)N2
# sort list by recorded [Aurora A IC50 (nM)]/[PLK4 IC50 (nM)], greatest to least Ranked list of labels, please, in the requested order.
III, I, II

P = COc1ccc2c(c1)[C@]1(C[C@H]1c1ccc3c(Nc4ncc(S(=O)(=O)C(C)C)cc4OC)n[nH]c3c1)C(=O)N2
Q = COc1ccc2c(c1)[C@]1(C[C@H]1c1ccc3c(Nc4nc(C)ncc4OC(C)C)n[nH]c3c1)C(=O)N2
R = COc1ccc2c(c1)[C@]1(C[C@H]1c1ccc3c(Nc4cc5cccnc5cc4OC)n[nH]c3c1)C(=O)N2
S = COc1ccc2c(c1)[C@]1(C[C@H]1c1ccc3c(Nc4nc(C)cnc4OC)n[nH]c3c1)C(=O)N2
# sort list by recorded [Aurora A IC50 (nM)]/[PLK4 IC50 (nM)], greatest to least Ranked list of labels, please, in the requested order.
Q, P, S, R
(Q: 2573.3401, P: 683.4543, S: 420.9667, R: 291.4932)

a = COc1ccc2c(c1)[C@]1(C[C@H]1c1ccc3c(Nc4ccc(C(=O)NNC(C)C)nc4OC)n[nH]c3c1)C(=O)N2
b = CCOc1cc(S(C)(=O)=O)cnc1Nc1n[nH]c2cc([C@@H]3C[C@@]34C(=O)Nc3ccc(OC)cc34)ccc12
Returns: the label, a or b , whose recorded [Aurora A IC50 (nM)]/[PLK4 IC50 (nM)] is the lower number. Indicate your choice by writing its label.
a
(a: 763.5782, b: 7904)
